Data provenance is patent US20200163954A1.

assay: PK parameters of cabozantinib and measured metabolites in human subjects; format: in vivo; settings: human, plasma, oral, 140 mg/day; read-out: t1/2, apparent terminal elimination half-life (converted)
READOUT_NAME: half-life (h)
Answer with a number only, understood to be in h.

Some molecules with recorded half-life:
- MOLECULE: "COc1cc2nccc(Oc3ccc(NC(=O)C4(C(=O)O)CC4)cc3)c2cc1OC [drawing 45]"
  READOUT_NAME: "half-life"
  NUMERIC_VALUE: 91.8
- MOLECULE: "COc1cc2c(Oc3ccc(NC(=O)C4(C(=O)Nc5ccc(F)cc5)CC4)cc3)cc[n+]([O-])c2cc1OC [drawing 46]"
  READOUT_NAME: "half-life"
  NUMERIC_VALUE: 89.2

Shift focus to the following entry.
Query :: Field request: half-life | item: COc1cc2nccc(Oc3ccc(NC(=O)C4(C(=O)Nc5ccc(F)cc5OS(=O)(=O)O)CC4)cc3)c2cc1OC [drawing 47]
Result :: 86
